Experiment: Normal rat biodistribution
Assay type: in vivo
Conditions: 240 min post-injection, i.v., male Wistar rats, Mean±SD n=3
Catalogue of compounds with associated % ID Kidney

COMPOUND	% ID Kidney
NCCCCCNS(=O)(=O)c1ccc(C(=O)NCCCNC(=O)c2ccc(NN)nc2)cc1	0.92 ± 0.37 % ID
CC(=NO)C(C)(C)NCC(C)(CNC(=O)C1CCC(CNC(=O)c2ccc(S(=O)(=O)NCCCCCN)cc2)CC1)CNC(C)(C)C(C)=NO (stereo not shown)	0.85 ± 0.08 % ID
CC(=NO)C(C)(C)NCCN(CCNC(=O)C1CCC(CNC(=O)c2ccc(S(=O)(=O)NCCCCCN)cc2)CC1)CCNC(C)(C)C(C)=NO (stereo not shown)	5.1 ± 0.99 % ID
CC(CNCc1ccccc1O)(CNCc1ccccc1O)CNC(=O)c1ccc(S(=O)(=O)NCCCCCN)cc1	3.19 ± 0.1 % ID

====

Test: Normal rat biodistribution
Assay type: in vivo
Conditions: 60 min post-injection, i.v., male Wistar rats, Mean±SD n=3
READOUT_NAME: % ID Liver (% ID)

MOLECULE	UNIT	RESULT_NUMBER
CC(=NO)C(C)(C)NCC(C)(CNC(=O)c1ccc(S(=O)(=O)NCCCCCN)cc1)CNC(C)(C)C(C)=NO (stereo not shown)	% ID	1.54
CC(=NO)C(C)(C)NCC(C)(CNC(=O)CCCCCN)CNC(C)(C)C(C)=NO (stereo not shown)	% ID	5.3
CC(CNCc1ccccc1O)(CNCc1ccccc1O)CNC(=O)c1ccc(S(=O)(=O)NCCCCCN)cc1	% ID	6.73
CC(=NO)C(C)(C)NCC(C)(CNC(=O)C1CCC(CNC(=O)c2ccc(S(=O)(=O)NCCCCCN)cc2)CC1)CNC(C)(C)C(C)=NO (stereo not shown)	% ID	2.63
NCCCCCNS(=O)(=O)c1ccc(C(=O)NCCCNC(=O)c2ccc(NN)nc2)cc1	% ID	1.6
CC(=NO)C(C)(C)NCCN(CCNC(=O)c1ccc(S(=O)(=O)NCCCCCN)cc1)CCNC(C)(C)C(C)=NO	% ID	3.07
CC(=NO)C(C)(C)NCCN(CCNC(=O)C1CCC(CNC(=O)c2ccc(S(=O)(=O)NCCCCCN)cc2)CC1)CCNC(C)(C)C(C)=NO (stereo not shown)	% ID	1.79

====

Assay: Normal rat biodistribution
Assay type: in vivo
Details: 240 min post-injection, i.v., male Wistar rats, Mean±SD n=3
Entries whose % ID GI Tract is below 70 % ID take Condition met; entries at or above 70 % ID take Condition not met.

COMPOUND	GROUP
NCCCCCNS(=O)(=O)c1ccc(C(=O)NCCCNC(=O)c2ccc(NN)nc2)cc1	Condition met
CC(=NO)C(C)(C)NCC(C)(CNC(=O)C1CCC(CNC(=O)c2ccc(S(=O)(=O)NCCCCCN)cc2)CC1)CNC(C)(C)C(C)=NO (stereo not shown)	Condition not met
CC(=NO)C(C)(C)NCC(C)(CNC(=O)c1ccc(S(=O)(=O)NCCCCCN)cc1)CNC(C)(C)C(C)=NO (stereo not shown)	Condition not met
CC(=NO)C(C)(C)NCCN(CCNC(=O)C1CCC(CNC(=O)c2ccc(S(=O)(=O)NCCCCCN)cc2)CC1)CCNC(C)(C)C(C)=NO (stereo not shown)	Condition met
CC(=NO)C(C)(C)NCCN(CCNC(=O)c1ccc(S(=O)(=O)NCCCCCN)cc1)CCNC(C)(C)C(C)=NO	Condition met
